System: Dd2
Test: qHTS profiling for inhibitors of Plasmodium falciparum proliferation (AID 504749); note: nearly all actives have a fitted effect of over 60% in size
Conditions: P. falciparum in erythrocytes, SYBR Green DNA, 72 h; series mostly up to 28.7 µM
Inconclusive results are not listed. Calls of active or inactive are those of the source. Calls come from the whole dose curve; as a rule, active = well fitted inhibition curve with a large enough effect; inconclusive = small, poorly fitted or top-dose-only effect; inactive = flat fitted curve, though single readings scatter.
Labels: true = active, false = inactive

>>> cat("Cc1cc(O)ccc1Cl")
"false"
>>> cat("O=C(O)C(Cl)Cl")
"false"
>>> cat("CC[N+]1(CCOC(=O)C(O)(c2ccccc2)c2ccccc2)CCCCC1")
"false"
>>> cat("CCCCc1ccc(C(=O)O)nc1")
"false"
>>> cat("O=[N+]([O-])c1ccc([As](=O)(O)O)cc1")
"true"
>>> cat("CC(=O)[O][Hg][c]1ccccc1")
"true"
>>> cat("C#CC1(O)CCC2C3CCC4=CC(=O)CCC4(C)C3CCC21C (stereo not drawn)")
"false"
>>> cat("Cc1ccc(Cl)c(O)c1")
"false"

----------
Tested on: Tov-21-G
Assay: Primary qHTS to identify gynecologic anti-cancer compounds using libraries of approved drugs and bioactive compounds (AID 1345084); note: nearly all actives have a fitted effect of over 55% in size
Conditions: Gynecologic cancer cell panel viability, ATPlite luminescence, 48 h; series mostly up to 57.5 µM
Inconclusive results are not listed. Active and inactive are the calls of the source. Calls follow the shape of the dose curve; as a rule, active = well fitted cell-killing curve with a large enough effect; inconclusive = small, poorly fitted or top-dose-only effect, or effect the other way; inactive = flat fitted curve, though single readings scatter.
Labels: active, inactive

>>> cat("Nc1c(Cl)c(Cl)c(Cl)c(Cl)c1Cl")
"inactive"
>>> cat("Cc1c(C(=O)Nc2cccc(C(F)(F)F)c2)cc(-c2ccccc2)n1CCCN1CCOCC1")
"inactive"
>>> cat("CN1CCN(c2ccc([N+](=O)[O-])c3no[n+]([O-])c23)CC1")
"inactive"
>>> cat("CC[N+]1(CCOC(=O)C(O)(c2ccccc2)c2ccccc2)CCCCC1")
"inactive"
>>> cat("CCCCCCCCCCCCCCCC[N+](C)(C)C")
"active"
>>> cat("Cc1ccc(Cl)c(O)c1")
"inactive"
>>> cat("O=S(=O)(c1ccc(Cl)cc1)c1ccc(Cl)cc1")
"inactive"

----------
Test: qHTS assay for small molecule agonists of the antioxidant response element (ARE) signaling pathway (AID 651741)
Conditions: HepG2 ARE-bla reporter, beta-lactamase FRET ratio, 16 h; series mostly up to 96 µM
Results filed as inconclusive are left out. Active and inactive are the calls of the source. Calls come from the whole dose curve; as a rule, active = well fitted activation curve with a large enough effect in the signal ratio; inconclusive = small, poorly fitted or top-dose-only effect, or effect the other way, or a change in a side signal; inactive = flat fitted curve, though single readings scatter; the % refers to the signal ratio.
Possible outcomes: active, inactive

>>> cat("COCCOCCO")
"inactive"
>>> cat("O=[N+]([O-])/N=C1\\NCCN1Cc1ccc(Cl)nc1")
"inactive"
>>> cat("Nc1cccc2c(N)cccc12")
"active"
>>> cat("CCCCC(CC)COC(=O)c1ccccc1C(=O)O (configuration not stated)")
"active"
>>> cat("CCCCCC[C@H]1C(=O)O[C@H](C)[C@H](NC(=O)c2cccc(NC=O)c2O)C(=O)O[C@@H](C)[C@@H]1OC(=O)CC(C)C")
"active"
>>> cat("CCCN(CCC)c1c([N+](=O)[O-])cc(S(N)(=O)=O)cc1[N+](=O)[O-]")
"active"
>>> cat("O=C(O)C(Cl)Cl")
"inactive"
>>> cat("CCOCCOC(C)=O")
"inactive"
>>> cat("O=S(=O)(c1ccc(Cl)cc1)c1ccc(Cl)cc1")
"active"
>>> cat("O=C(O)COc1ccccc1")
"inactive"
>>> cat("CC(C)(O)C(=O)Nc1ccc([N+](=O)[O-])c(C(F)(F)F)c1")
"active"
>>> cat("C1CCC(NC2CCCCC2)CC1")
"inactive"

Attribution: PubChem BioAssay (NCATS)
